Values were extracted from PubChem BioAssay AID1159580.

Field: normalized growth. Provide a value for each of the molecules that follow.
Experimental Protocol: chemical genetic growth profiling, strain panel (AID 1159580);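 further: tested at 20 µM; growth read once vehicle control cultures reached saturation at 30 °C; 1 = growth at the plate median or of vehicle wells; lower values mean less growth of the strain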
Stated Conditions: S. cerevisiae deletion strains, growth OD, locus YNL128W, strain TEP1, stronger effect = lower value
About 2,000 (36%) of roughly 5,500 compounds were called active. Another 18% or so got no clear call; they are omitted. The list shows a part of the results.
Give bare numbers.

Here are 5 molecules together with their reported answers.
{"columns": ["Molecule", "Experimental Readout", "Experimental Result"],
 "data": [
  ["O=C(NCO)c1cccnc1", "normalized growth", 0.999],
  ["CCCN1CC(CSC)CC2c3cccc4[nH]cc(c34)CC21 (stereo unspecified)", "normalized growth", 1.02],
  ["O=C(O)c1cc(O)c2c(c1)[C@@H]([C@H]1c3cc(C(=O)O)cc(O)c3C(=O)c3c(O[C@H]4O[C@H](CO)[C@@H](O)[C@H](O)[C@H]4O)cccc31)c1cccc(O[C@H]3O[C@H](CO)[C@@H](O)[C@H](O)[C@H]3O)c1C2=O", "normalized growth", 1.05],
  ["CSc1sc(C#N)c2c1C(O)CCC2 (stereo unspecified)", "normalized growth", 0.975],
  ["C[N+]1(C)CCN(c2ccccc2)CC1", "normalized growth", 0.997]
]}

Now for a further molecule.
According to the records, this molecule CC(C)(C)NCC(O)c1ccc(O)c(CO)c1 (stereo unspecified) displays normalized growth of 1.02
